# Assay remarks: Serum NAG and glucosamine levels after oral ingestion of NAG or poly-NAG in healthy subjects (crossover, HPLC analysis)
# Assay type: in vivo, human
# Test settings: both sexes, human, serum; T48, 48 hours after final 1.0 g oral dose, fasting
Test readout: concentration at 48 h
Write your answer as a measured quantity: the number, then the unit.

Q. // concentration at 48 h lookup, key: CC(=O)N[C@H]1C(O)O[C@H](CO)[C@@H](O)[C@@H]1O (stereo partly drawn) [NAG, N-acetyl-D-glucosamine]
A. 12.7 µM

###

# Assay remarks: Serum NAG and glucosamine levels after oral ingestion of NAG or poly-NAG in healthy subjects (crossover, HPLC analysis)
# Type: in vivo, human
# Test settings: both sexes, human, serum; T24, 24 hours after final 1.0 g oral dose, fasting
Test readout: concentration at 24 h
Write your answer as a measured quantity: the number, then the unit.

Q. // concentration at 24 h lookup, key: CC(=O)N[C@H]1C(O)O[C@H](CO)[C@@H](O)[C@@H]1O (stereo partly shown)
A. 13.6 µM

###

# Assay remarks: Serum NAG and glucosamine levels after oral ingestion of NAG or poly-NAG in healthy subjects (crossover, HPLC analysis)
# Type: in vivo, human
# Test settings: both sexes, human, serum; T8, 8 hours after final 1.0 g oral dose, nonfasting
Test readout: concentration at 8 h (µM)
Respond with the bare value in µM.

Q. // concentration at 8 h lookup, key: CC(=O)N[C@H]1C(O)O[C@H](CO)[C@@H](O)[C@@H]1O (stereo partly shown)
A. 14.6
